Can you tell me Bmax for the items I'm about to list?
experimental_target: T1, Rat serum albumin (RSA) (rat, UniProt P02770 25-608)
T1 construct: Bought protein (Sigma); also called rat albumin
T1 sequence (P02770 25-608): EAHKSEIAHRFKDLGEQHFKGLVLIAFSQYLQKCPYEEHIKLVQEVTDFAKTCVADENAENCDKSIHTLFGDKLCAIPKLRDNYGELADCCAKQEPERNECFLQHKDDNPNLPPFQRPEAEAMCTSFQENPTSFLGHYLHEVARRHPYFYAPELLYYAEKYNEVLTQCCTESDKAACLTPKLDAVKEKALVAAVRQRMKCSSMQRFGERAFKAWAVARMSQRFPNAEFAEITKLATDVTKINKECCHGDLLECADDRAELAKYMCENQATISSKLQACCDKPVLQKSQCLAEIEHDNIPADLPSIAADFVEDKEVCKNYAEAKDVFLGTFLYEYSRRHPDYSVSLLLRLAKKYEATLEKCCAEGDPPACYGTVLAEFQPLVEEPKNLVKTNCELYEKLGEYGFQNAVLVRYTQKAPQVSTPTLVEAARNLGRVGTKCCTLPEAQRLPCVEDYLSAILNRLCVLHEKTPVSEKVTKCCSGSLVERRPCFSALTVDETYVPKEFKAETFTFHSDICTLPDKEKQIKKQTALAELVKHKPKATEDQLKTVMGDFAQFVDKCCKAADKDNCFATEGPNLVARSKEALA
assay_overview: ELISA on coated rat albumin, anti-human Fc HRP, A650, one site-total binding fit
Hi! Could you send only the number? It should be in A650, unit omitted.

## Task Tell me Bmax reported for 4A01v3-1 (Fc fusion, not shown: a dimerising Fc or GST; small tags and cut ends, also called Hz4A01v3-1) VHH: EVQLVESGGGEVQPGGSLRLSCAASGFTFSTSGMVWVRQAPGKGLEWVSTISDDARIIRYAESVKGRFTISRDNAKNTLYLQMNSLRAEDTAVYYCATYRAGSRIGSYEDYYRGQGTLVTVKP
## Result 1.28

## Task Tell me Bmax reported for 4A01v3-4 (Fc fusion, also called Hz4A01v3-4; not shown: Human Fc carrier and its linker) VHH: EVQLVESGGGEVQPGGSLRLSCAASGFAFSTSGMSWVRQAPGKGLEWVSTISDDARIIRYAESVKGRFTISRDNAKNTLYLQMNSLRAEDTAVYYCATYRAGSRIGSYEDYYRGQGTLVTVKP
## Result 1.41

## Task Tell me Bmax reported for 4A01v9 (Fc fusion, not shown: a dimerising Fc or GST; small tags and cut ends, also called Hz4A01v9) VHH: EVQLVESGGGEVQPGGSLRLSCAASGFAFSTSGMVWVRQAPGKGLEWVSTISDDTRIIRYAESVKGRFTISRDNAKNTLYLQMNSLRAEDTAVYYCATYRAGSRIGSYEDYYRGQGTLVTVKP
## Result 1.27

## Task Tell me Bmax reported for 4A01v3-7 (Fc fusion, also called Hz4A01v3-7; not shown: Human Fc carrier and its linker) VHH: EVQLVESGGGEVQPGGSLRLSCAASGFAFSTSGMVWVRQAPGKGLEWVSTISDDARIIRYAESVKGRFTISRDNAKNTVYLQMNSLRAEDTAVYYCATYRAGSRIGSYEDYYRGQGTLVTVKP
## Result 1.35

## Task Tell me Bmax reported for 4A01v3-3 (Fc fusion, not shown: a dimerising Fc or GST; small tags and cut ends, also called Hz4A01v3-3) VHH: EVQLVESGGGEVQPGGSLRLSCAASGFAFSTSGMAWVRQAPGKGLEWVSTISDDARIIRYAESVKGRFTISRDNAKNTLYLQMNSLRAEDTAVYYCATYRAGSRIGSYEDYYRGQGTLVTVKP
## Result 1.32

## Task Tell me Bmax reported for 4A01-NNT-hFc (Fc fusion, Monomeric sdAb-Fc fusion (Fc S364N, Y407N, K409T = NNT); also called 1m4A01; anti-albumin sdAb 4A01) QVQLQESGGGLVQPGGSLRLSCAASGFAFSTSGMVWVRQATGKGLEWVSTISDDSRIIRYADSVNGRFTISRDNAENTLYLLMNSLKPEDTAVYYCATYRAGSRIGSYEDYYRGQGTQVTVSSGGPSVFLFPPKPKDTLMISRTPEVTCVVVDVSHEDPEVKFNWYVDGVEVHNAKTKPREEQYNSTYRVVSVLTVLHQDWLNGKEYKCKVSNKALPAPIEKTISKAKGQPREPQVYTLPPSRDELTKNQVNLTCLVKGFYPSDIAVEWESNGQPENNYKTTPPVLDSDGSFFLNSTLTVDKSRWQQGNVFSCSVMHEALHNHYTQKSLSLSPG
## Result 1.24

## Task Tell me Bmax reported for 4A01v3-5 (Fc fusion, also called Hz4A01v3-5; not shown: Human Fc carrier and its linker) VHH: EVQLVESGGGEVQPGGSLRLSCAASGFAFSTSGMVWYRQAPGKGLEWVSTISDDARIIRYAESVKGRFTISRDNAKNTLYLQMNSLRAEDTAVYYCATYRAGSRIGSYEDYYRGQGTLVTVKP
## Result 1.35

## Task Tell me Bmax reported for 4A01v1 (Fc fusion, also called Hz4A01v1; not shown: Human Fc carrier and its linker) VHH: EVQLVESGGGEVQPGGSLRLSCAASGFAFSTSGMVWVRQAPGKGLEWVSTISDDSRIIRYAESVKGRFTISRDNAKNTLYLQMNSLRAEDTAVYYCATYRAGSRIGSYEDYYRGQGTLVTVKP
## Result 1.28

Values compiled from patent US20250353911A1.
